Exercise: for every item that follows, state its recorded target mRNA inhibition.
assay_system: ANGPTL2
run_conditions: ASO, 5 µM
After the bases stand the sugars from the 5' end (letter, count) and the backbone: PS all phosphorothioate, else s phosphorothioate and o phosphodiester by linkage. Methylation of C is not given here. l = locked nucleic acid (LNA); d = 2'-deoxy (DNA)
Give bare numbers, in %.

{"biopolymer_sequence": "GCAGCTCATTGTTGAGCA (sugars l1 d15 l2, PS)", "assay_system": "ANGPTL2", "readout": "target mRNA inhibition", "observed_measurement": -2.7}
{"biopolymer_sequence": "ATTTTGAGATTCCCCCAAAG (sugars l1 d17 l2, PS)", "assay_system": "ANGPTL2", "readout": "target mRNA inhibition", "observed_measurement": 10.8}
{"biopolymer_sequence": "CCAACCATAAATTAATTG (sugars l4 d10 l4, PS)", "assay_system": "ANGPTL2", "readout": "target mRNA inhibition", "observed_measurement": 61.8}

# batch size: 4; output target mRNA inhibition per entry
1. GTAGGTAGGCGAGGAG (sugars l2 d12 l2, PS)
2. TGGTTGATGATGCGGTT (sugars l2 d13 l2, PS)
3. ACTAAATGAACTTCCACA (sugars l4 d11 l3, PS)
4. TTGATGATGCGGTTGTAGG (sugars l1 d16 l2, PS)

Solution:
16.3
81.7
44.6
44.8
